System: bovine serum albumin
Test: Anti-glycation effect: inhibition of glycation of bovine serum albumin by D-ribose, measured by fluorescence
Type: biochemical
Settings: fluorescence corresponding to formation of the pentosidine glycation product; BSA + D-ribose 100 mM, 37° C., four weeks; read-out: λex 320/λex 380 nm IC50
Item-by-item account of IC50
Reply numerically in µM, unit not repeated.

Worked set:
INSERT INTO results (molecule, measuredproperty, readoutunit, reportedresult) VALUES
  ('O=C1c2cccc3cccc(c23)C(=O)N1O [Compound 5, N,N-(1,8-naphthaloyl)hydroxylamine]', 'IC50', 'µM', 0.8),
  ('O=C1C=CC(=O)N1O [Compound 2, N-hydroxymaleimide]', 'IC50', 'µM', 800),
  ('N=C(N)NN [Aminoguanidine, reference compound]', 'IC50', 'µM', 200),
  ('O=C1c2ccccc2C(=O)N1O [Compound 4, N-hydroxyphthalimide]', 'IC50', 'µM', 200);

# ---- query molecule ----
## Task State the recorded IC50 for this entry: O=C1C=C(c2ccccc2)C(=O)N1O [Compound 3, N-hydroxy-2-phenylmaleimide]
## Result 30
